TARGET_DESC: Acetylcholinesterase (Electrophorus electricus, UniProt O42275)
Sequence (O42275 whole entry): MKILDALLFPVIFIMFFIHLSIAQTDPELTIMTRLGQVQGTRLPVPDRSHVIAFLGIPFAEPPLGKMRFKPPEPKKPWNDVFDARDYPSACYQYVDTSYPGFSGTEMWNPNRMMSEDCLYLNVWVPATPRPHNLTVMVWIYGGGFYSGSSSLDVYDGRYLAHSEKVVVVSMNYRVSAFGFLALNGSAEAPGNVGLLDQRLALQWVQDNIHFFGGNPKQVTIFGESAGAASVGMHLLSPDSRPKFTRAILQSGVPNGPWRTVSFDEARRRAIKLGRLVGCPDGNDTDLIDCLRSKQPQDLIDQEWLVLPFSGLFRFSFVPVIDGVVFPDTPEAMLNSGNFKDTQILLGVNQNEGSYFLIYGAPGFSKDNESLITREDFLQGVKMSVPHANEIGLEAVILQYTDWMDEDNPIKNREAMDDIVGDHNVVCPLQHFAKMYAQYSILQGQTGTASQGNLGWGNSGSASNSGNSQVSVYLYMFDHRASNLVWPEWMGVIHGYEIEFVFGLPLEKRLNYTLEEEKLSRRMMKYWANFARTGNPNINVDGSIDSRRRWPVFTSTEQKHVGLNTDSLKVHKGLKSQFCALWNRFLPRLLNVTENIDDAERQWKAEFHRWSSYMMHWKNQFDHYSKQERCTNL
Kindly state pIC50 for each of the entries shown.
Answers are plain numbers, as −log10 of the molar value.

Completed entries (count: 3):
SMILES_REPR: COC(=O)C1=C2Nc3ccccc3[C@@]23CCN2C[C@]4(C[C@@H]5C[C@]67CC(=O)O[C@H]6CCN6CC[C@@]8(c9cccc(OC)c9N(C4)[C@@H]58)[C@@H]67)[C@@H]4OCC[C@]4(C1)[C@H]23
pIC50: 4.04
--
SMILES_REPR: COC(=O)C1=C2Nc3ccccc3[C@@]23CCN2C[C@]4(C[C@@H]5C[C@]67CCO[C@H]6CCN6CC[C@@]8(c9cccc(OC)c9N(C4)[C@@H]58)[C@@H]67)[C@@H]4OCC[C@]4(C1)[C@H]23
pIC50: 4.06
--
SMILES_REPR: COC(=O)C1=C2Nc3ccccc3[C@@]23CCN2[C@H](O)[C@]4(C[C@@H]5C[C@]67CC(=O)O[C@H]6CCN6CC[C@@]8(c9cccc(OC)c9N(C4)[C@@H]58)[C@@H]67)[C@@H]4OCC[C@]4(C1)[C@H]23
pIC50: 4.03

Alright, here's another compound for you.
Ask: Read off the recorded pIC50 for COC(=O)C1=C2Nc3ccccc3[C@@]23CCN2C[C@]4(C[C@@H]5C[C@]67CC(=O)C[C@H]6CCN6CC[C@@]8(c9cccc(OC)c9N(C4)[C@@]58O)[C@@H]67)[C@@H]4OCC[C@]4(C1)[C@H]23
Reply: 4.05

---

TARGET_DESC: Cholinesterase (Equus caballus, UniProt P81908)
Sequence (P81908 whole entry): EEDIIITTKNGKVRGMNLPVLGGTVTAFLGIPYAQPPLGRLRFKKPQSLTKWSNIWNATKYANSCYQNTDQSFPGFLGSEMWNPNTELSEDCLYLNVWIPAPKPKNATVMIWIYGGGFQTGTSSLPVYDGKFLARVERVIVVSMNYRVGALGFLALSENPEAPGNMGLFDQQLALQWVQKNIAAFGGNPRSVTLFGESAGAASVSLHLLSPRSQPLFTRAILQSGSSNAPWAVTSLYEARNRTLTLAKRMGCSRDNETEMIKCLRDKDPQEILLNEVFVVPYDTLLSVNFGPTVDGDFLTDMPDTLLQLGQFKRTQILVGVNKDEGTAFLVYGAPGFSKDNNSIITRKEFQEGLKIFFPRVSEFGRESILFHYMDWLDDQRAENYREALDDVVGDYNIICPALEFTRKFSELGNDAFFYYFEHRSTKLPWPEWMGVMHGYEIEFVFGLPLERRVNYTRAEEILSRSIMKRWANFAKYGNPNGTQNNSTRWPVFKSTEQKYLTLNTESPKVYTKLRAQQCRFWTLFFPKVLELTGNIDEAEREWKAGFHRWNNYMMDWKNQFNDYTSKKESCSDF
ASSAY: Inhibition of equine serum BChE by colorimetric Ellman's assay
CONDITION_INFO: read-out: IC50
MEASUREMENT_KIND: pIC50
One number for each entry, as −log10 of the molar value.

Answered cases to consult:
MOLECULE: COC(=O)C1=C2Nc3ccccc3[C@@]23CCN2C[C@]4(C[C@@H]5C[C@]67CC(=O)O[C@H]6CCN6CC[C@@]8(c9cccc(OC)c9N(C4)[C@@H]58)[C@@H]67)[C@@H]4OCC[C@]4(C1)[C@H]23 [DEOXYVOBSTUSINE LACTONE]
TARGET_DESC: Cholinesterase (Equus caballus, UniProt P81908)
pIC50: 4.69
//
MOLECULE: COC(=O)C1=C2Nc3ccccc3[C@@]23CCN2C[C@]4(C[C@@H]5C[C@]67CC(=O)C[C@H]6CCN6CC[C@@]8(c9cccc(OC)c9N(C4)[C@@]58O)[C@@H]67)[C@@H]4OCC[C@]4(C1)[C@H]23 [VOBTUSINE LACTONE]
TARGET_DESC: Cholinesterase (Equus caballus, UniProt P81908)
pIC50: 4.74

Please give pIC50 for each item listed below.
1. COC(=O)C1=C2Nc3ccccc3[C@@]23CCN2[C@H](O)[C@]4(C[C@@H]5C[C@]67CC(=O)O[C@H]6CCN6CC[C@@]8(c9cccc(OC)c9N(C4)[C@@H]58)[C@@H]67)[C@@H]4OCC[C@]4(C1)[C@H]23 [GLOBOSPIRAMINE]
2. COC(=O)C1=C2Nc3ccccc3[C@@]23CCN2C[C@]4(C[C@@H]5C[C@]67CCO[C@H]6CCN6CC[C@@]8(c9cccc(OC)c9N(C4)[C@@H]58)[C@@H]67)[C@@H]4OCC[C@]4(C1)[C@H]23 [DEOXYVOBTUSINE]

Reply:
4.79
5.21
